# TEST: MTS cytotoxicity assay, COLO 205
# APPLIED CONDITIONS: human, COLO 205 colon carcinoma cells, percent cytotoxicity, 100 μM, two days
PARAMETER: cytotoxicity at 2 days, 100 µM (%)
Numbers only; they are read as %.

MOLECULE	SCALE UNIT	OBSERVED RESULT
NC(=O)C1=C(O)CC2CC3Cc4cccc(O)c4C(=O)C3=C(O)C2(O)C1=O (centres unmarked) [CMT-3]	%	85.6

Now for a further molecule.
Problem: Please indicate cytotoxicity at 2 days, 100 µM recorded for C[C@H]1c2cccc(O)c2C(=O)C2=C(O)[C@]3(O)C(=O)C(C(N)=O)=C(O)[C@@H](N(C)C)[C@@H]3[C@@H](O)[C@@H]21 [Doxycycline, 6α-deoxy-5-hydroxy-tetracycline, reference compound]
Result: 66.5
